Recorded values, source patent US10251881B2.

Measured MMD by item
run.description: Particle size of the powders (AEROSIZER, SYMPATEC)
Assay type: physicochemical
condition.label: powder, SYMPATEC
Give just the number in μm; leave the unit off.

Example entries and their recorded answers appear below.
CCC(=O)O[C@]1(C(=O)SCF)[C@H](C)C[C@H]2[C@@H]3C[C@H](F)C4=CC(=O)C=C[C@]4(C)[C@@]3(F)[C@@H](O)C[C@@]21C [fluticasone propionate sample B, fluticasone propionate] ... 5.6
CCC(=O)O[C@]1(C(=O)SCF)[C@H](C)C[C@H]2[C@@H]3C[C@H](F)C4=CC(=O)C=C[C@]4(C)[C@@]3(F)[C@@H](O)C[C@@]21C [fluticasone propionate sample A, fluticasone propionate] ... 2.3
CCC(=O)O[C@]1(C(=O)SCF)[C@H](C)C[C@H]2[C@@H]3C[C@H](F)C4=CC(=O)C=C[C@]4(C)[C@@]3(F)[C@@H](O)C[C@@]21C [fluticasone propionate sample C, fluticasone propionate] ... 2.3
CCCCCCCCCCCCCCCC(=O)OC1CCCn2c1nc(C)c(CCN1CCC(c3noc4cc(F)ccc34)CC1)c2=O (single isomer, unassigned) [risperidone-(9-hydroxy)-palmitate sample A] ... 2.95
CCCCCCCCCCCCCCCC(=O)OC1CCCn2c1nc(C)c(CCN1CCC(c3noc4cc(F)ccc34)CC1)c2=O (single isomer, unassigned) [risperidone-(9-hydroxy)-palmitate sample C] ... 3.5

Now let's try a different one.
MMD reported for this compound CCCCCCCCCCCCCCCC(=O)OC1CCCn2c1nc(C)c(CCN1CCC(c3noc4cc(F)ccc34)CC1)c2=O (single isomer, unassigned) [risperidone-(9-hydroxy)-palmitate sample B] : 2.5

---

run.description: Flocculation volume of particulate drug suspended in propellant (HFA 134a or HFA 227ea)
Assay type: physicochemical
condition.label: HFA 227ea, averaged over the first minute
Structures can show the parent of a compound that is named as a salt.
Lab note: compare rate of change in flocculation volume (flocculation rate) with -50 % per minute, writing 1 if less and -1 if equal or more.

Examples from the recorded data:
OCc1cc(C(O)CNCCCCCCOCCCCc2ccccc2)ccc1O (single isomer, unassigned) [salmeterol xinafoate sample C, salmeterol xinafoate] ... 1
CC(C)(C)NCC(O)c1ccc(O)c(CO)c1 (centres unmarked) [salbutamol micronized sample, salbutamol] ... 1
CCCCCCCCCCCCCCCC(=O)OC1CCCn2c1nc(C)c(CCN1CCC(c3noc4cc(F)ccc34)CC1)c2=O (centres unmarked) [risperidone-(9-hydroxy)-palmitate] ... 1
CN1C[C@H](C(=O)N[C@]2(C)O[C@@]3(O)[C@@H]4CCCN4C(=O)[C@H](Cc4ccccc4)N3C2=O)C[C@@H]2c3cccc4[nH]cc(c34)C[C@H]21 [DHE micronized sample, dihydroergotamine mesylate] ... 1

Turning now to a further compound:
Q: Does the reported rate of change in flocculation volume (flocculation rate) of the following compound sit strictly below -50 % per minute? CCC(=O)O[C@]1(C(=O)SCF)[C@H](C)C[C@H]2[C@@H]3C[C@H](F)C4=CC(=O)C=C[C@]4(C)[C@@]3(F)[C@@H](O)C[C@@]21C [fluticasone propionate sample D, fluticasone propionate]
Result: -1

---

run.description: Flocculation volume of particulate drug suspended in propellant (HFA 134a or HFA 227ea)
Assay type: physicochemical
condition.label: HFA 227ea, averaged over the first 2 minutes
Counter-ions that a name gives are not always drawn.
observed.property: rate of change in flocculation volume (flocculation rate) (% per minute)
Number only, in % per minute; omit the unit.

CCCCCCCCCCCCCCCC(=O)OC1CCCn2c1nc(C)c(CCN1CCC(c3noc4cc(F)ccc34)CC1)c2=O (single isomer, unassigned) [risperidone-(9-hydroxy)-palmitate sample A] ... −2.5
OCc1cc(C(O)CNCCCCCCOCCCCc2ccccc2)ccc1O (single isomer, unassigned) [salmeterol xinafoate sample A, Salmeterol xinafoate] ... −11
CN1C[C@H](C(=O)N[C@]2(C)O[C@@]3(O)[C@@H]4CCCN4C(=O)[C@H](Cc4ccccc4)N3C2=O)C[C@@H]2c3cccc4[nH]cc(c34)C[C@H]21 [DHE SEDS® product, dihydroergotamine mesylate] ... 0

From here, focus on the item given below.
The recorded rate of change in flocculation volume (flocculation rate) for OCc1cc(C(O)CNCCCCCCOCCCCc2ccccc2)ccc1O (single isomer, unassigned) [salmeterol xinafoate sample B, salmeterol xinafoate] is −19

---

run.description: Flocculation volume of particulate drug suspended in propellant (HFA 134a or HFA 227ea)
Format: physicochemical
condition.label: HFA 134a, 1% w/v, 22° C., after 10 minutes
Where a name gives a salt, the structure may show the parent alone.
Each item that follows carries a reported flocculation volume.
Number in %, nothing else.

Example compounds with recorded flocculation volume:
CC(C)C[C@H]1C(=O)N2CCC[C@H]2[C@]2(O)O[C@](NC(=O)[C@@H]3C=C4c5cccc6[nH]c(Br)c(c56)C[C@H]4N(C)C3)(C(C)C)C(=O)N12 [bromocriptine mesylate sample B, Bromocriptine mesylate] ... 53
CCCCCCCCCCCCCCCC(=O)OC1CCCn2c1nc(C)c(CCN1CCC(c3noc4cc(F)ccc34)CC1)c2=O (single isomer, unassigned) [risperidone-(9-hydroxy)-palmitate sample A] ... 100
CCCCCCCCCCCCCCCC(=O)OC1CCCn2c1nc(C)c(CCN1CCC(c3noc4cc(F)ccc34)CC1)c2=O (single isomer, unassigned) [risperidone-(9-hydroxy)-palmitate sample B] ... 100

Here is another compound to look at.
Lab note: OCc1cc(C(O)CNCCCCCCOCCCCc2ccccc2)ccc1O (single isomer, unassigned) [salmeterol xinafoate sample C, salmeterol xinafoate] gave flocculation volume of 30

---

run.description: Flocculation volume of particulate drug suspended in propellant (HFA 134a or HFA 227ea)
Assay type: physicochemical
condition.label: HFA 134a, averaged over the first minute
Excerpt: Flocculation volume, sometimes referred to as “sedimentation volume”, can be measured by a conventional and relatively simple method. The substance under test, in particulate form, is suspended in the desired fluid vehicle at a suitable concentration. […] The flocculation volume of the mixture at a given point in time is the volume of fluid which is still occupied by the particulate dispersion, expressed as a percentage of the total fluid volume. […]
observed.property: rate of change in flocculation volume (flocculation rate) (% per minute)
Give the value, in units of % per minute, as a plain number.

Please review the following examples before continuing.
CCC(=O)O[C@]1(C(=O)SCF)[C@H](C)C[C@H]2[C@@H]3C[C@H](F)C4=CC(=O)C=C[C@]4(C)[C@@]3(F)[C@@H](O)C[C@@]21C [fluticasone propionate sample D, fluticasone propionate] ... −68
OCc1cc(C(O)CNCCCCCCOCCCCc2ccccc2)ccc1O (single isomer, unassigned) [salmeterol xinafoate sample C, salmeterol xinafoate] ... −38
CCCCCCCCCCCCCCCC(=O)OC1CCCn2c1nc(C)c(CCN1CCC(c3noc4cc(F)ccc34)CC1)c2=O (stereo not shown) [risperidone-(9-hydroxy)-palmitate] ... −152

Reported rate of change in flocculation volume (flocculation rate) for CC(C)(C)NCC(O)c1ccc(O)c(CO)c1 (stereo not shown) was −84

---

run.description: Flocculation volume of particulate drug suspended in propellant (HFA 134a or HFA 227ea)
Format: physicochemical
condition.label: HFA 227ea, averaged over the first 2 minutes
Measured rate of change in flocculation volume (flocculation rate) of individual entries
All answers are understood in % per minute, so give the number only.

CCC(=O)O[C@]1(C(=O)SCF)[C@H](C)C[C@H]2[C@@H]3C[C@H](F)C4=CC(=O)C=C[C@]4(C)[C@@]3(F)[C@@H](O)C[C@@]21C [fluticasone propionate sample B, fluticasone propionate] ... −0.5

rate of change in flocculation volume (flocculation rate) for CCCCCCCCCCCCCCCC(=O)OC1CCCn2c1nc(C)c(CCN1CCC(c3noc4cc(F)ccc34)CC1)c2=O (single isomer, unassigned) [risperidone-(9-hydroxy)-palmitate sample B] is −3

// rate of change in flocculation volume (flocculation rate) value for CCC(=O)O[C@]1(C(=O)SCF)[C@H](C)C[C@H]2[C@@H]3C[C@H](F)C4=CC(=O)C=C[C@]4(C)[C@@]3(F)[C@@H](O)C[C@@]21C [fluticasone propionate sample C, fluticasone propionate] : 0

Given item CCCCCCCCCCCCCCCC(=O)OC1CCCn2c1nc(C)c(CCN1CCC(c3noc4cc(F)ccc34)CC1)c2=O (single isomer, unassigned) [risperidone-(9-hydroxy)-palmitate sample C] , the value recorded as its rate of change in flocculation volume (flocculation rate) is −3

---

run.description: Flocculation volume of particulate drug suspended in propellant (HFA 134a or HFA 227ea)
Assay type: physicochemical
condition.label: HFA 134a, averaged over the first 2 minutes
observed.property: rate of change in flocculation volume (flocculation rate) (% per minute)
// note: answer is a bare numeric in % per minute

# annotated cases, reported rate of change in flocculation volume (flocculation rate) shown
CCC(=O)O[C@]1(C(=O)SCF)[C@H](C)C[C@H]2[C@@H]3C[C@H](F)C4=CC(=O)C=C[C@]4(C)[C@@]3(F)[C@@H](O)C[C@@]21C [fluticasone propionate sample B, fluticasone propionate] ... −1
OCc1cc(C(O)CNCCCCCCOCCCCc2ccccc2)ccc1O (single isomer, unassigned) [salmeterol xinafoate sample B, salmeterol xinafoate] ... −0.2
CCCCCCCCCCCCCCCC(=O)OC1CCCn2c1nc(C)c(CCN1CCC(c3noc4cc(F)ccc34)CC1)c2=O (single isomer, unassigned) [risperidone-(9-hydroxy)-palmitate sample C] ... −1
CCCCCCCCCCCCCCCC(=O)OC1CCCn2c1nc(C)c(CCN1CCC(c3noc4cc(F)ccc34)CC1)c2=O (single isomer, unassigned) [risperidone-(9-hydroxy)-palmitate sample A] ... 0
OCc1cc(C(O)CNCCCCCCOCCCCc2ccccc2)ccc1O (single isomer, unassigned) [salmeterol xinafoate sample A, Salmeterol xinafoate] ... −3

// CCCCCCCCCCCCCCCC(=O)OC1CCCn2c1nc(C)c(CCN1CCC(c3noc4cc(F)ccc34)CC1)c2=O (single isomer, unassigned) [risperidone-(9-hydroxy)-palmitate sample B] : rate of change in flocculation volume (flocculation rate) value = 0

Entry CCC(=O)O[C@]1(C(=O)SCF)[C@H](C)C[C@H]2[C@@H]3C[C@H](F)C4=CC(=O)C=C[C@]4(C)[C@@]3(F)[C@@H](O)C[C@@]21C [fluticasone propionate sample A, fluticasone propionate] ; rate of change in flocculation volume (flocculation rate) = −20
